experiment: Quantitative High-Throughput drug screen in 47 multiple myeloma cell lines against the NCATS MIPE library collection: OPM1_PLB cell viability assay (AID 1918989); conditions: CellTiter-Glo, 48 h; series mostly up to 45.8 µM; note: nearly all actives have a fitted effect of over 40% in size; note: potency is the fitted concentration of half-maximal effect
Records with an inconclusive call do not appear. Active and inactive are the calls of the source. Calls come from the whole dose curve; as a rule, active = well fitted cell-killing curve with a large enough effect; inconclusive = small, poorly fitted or top-dose-only effect, or effect the other way; inactive = no such curve, though single readings can be large or run the other way.
readout type: Potency

Consider the following illustrative entries.
| line notation | Potency |
| --- | --- |
| Cc1cc(CS(=O)(=O)c2ccccc2)cc(OCc2ccc(CN3CCC[C@H]3CO)cc2)c1 | 20.9 µM (active) |
| CN(C)CC[C@H](CSc1ccccc1)Nc1ccc(S(=O)(=O)NC(=O)c2ccc(N3CCN(Cc4ccccc4-c4ccc(Cl)cc4)CC3)cc2)cc1[N+](=O)[O-] | 10.5 µM (active) |
| Fc1ccc(CNc2ncnc3ccc(F)cc23)cc1 | 16.6 µM (active) |
| OC[C@H]1O[C@@H](OCCc2ccc(O)cc2)[C@H](O)[C@@H](O)[C@H]1O | 29.6 µM (active) |
| CCCCn1c(=O)n(Cc2ccccc2F)c(=O)c2[nH]c(Cc3ccc(NC(C)=O)cc3)nc21 | inactive |
| COc1cc2nccc(Oc3ccc(NC(=O)Nc4cc(C)on4)c(Cl)c3)c2cc1OC | 20.9 µM (active) |
| COc1ccc(-c2cc3nccn3c(Nc3ncccc3C(N)=O)n2)cc1OC | 2.09 µM (active) |
| O=C1CN2Cc3c(ccc(Cl)c3Cl)N=C2N1 | 13.2 µM (active) |
| NC(=O)c1ncn([C@@H]2O[C@H](CO)[C@@H](O)[C@@H]2O)n1 | inactive |

# context switch: different compound, same Potency
q: Given the entry C#CCN(C)CC1=Cc2ccccc2Oc2ccccc21 , report its measured Potency.
a: inactive
